target system: BRDT-BD1 (Homo sapiens (Human))
assay explanation: AlphaLisa bromodomain binding assay, BRDT-BD1
condition summary: Table 6; read-out: BRDT(1) IC50
Please provide measured IC50 for the entries that follow.
Answers are plain numbers, in nM.

Below, 5 molecules whose answers are already recorded.
1. CC(C)(C)S(=O)(=O)Nc1cccc(-n2ccc3cnc(Nc4ccc(C(=O)NC5CCNCC5)c(F)c4)nc32)c1 : 312
2. CN1CCC(NC(=O)c2ccc(Nc3ncc4ccn(-c5cccc(NS(=O)(=O)C(C)(C)C)c5)c4n3)cc2F)CC1 : 230
3. CC(C)(C)S(=O)(=O)Nc1cc(-n2ccc3cnc(Nc4cc(F)c5c(c4)CC4CNCCN54)nc32)ccc1F (stereo not drawn) [drawing 465] : 292
4. CNC1CCN(c2ccc(Nc3ncc4scc(-c5ccc(F)c(NS(=O)(=O)C(C)(C)C)c5)c4n3)cc2F)CC1 [drawing 458] : 223
5. CC(C)(C)S(=O)(=O)Nc1cc(-n2ccc3cnc(Nc4cc(F)c5c(c4)CC4CNCCN54)nc32)ccc1F (stereo not drawn) [drawing 443] : 185

// input: 7 molecules below; output: IC50 for each
1. CN1CCN(c2ccc(Nc3ncc4ccn(-c5cccc(NS(=O)(=O)C(C)(C)C)c5)c4n3)cc2C#N)CC1
2. Cc1cnc(Nc2ccc(C(=O)NC3CCN(C)CC3)c(F)c2)nc1Nc1ccc2c(c1)N(S(=O)(=O)C(C)(C)C)CC2
3. CC(C)(C)S(=O)(=O)Nc1cccc(-n2ccc3cnc(Nc4ccc(C(=O)N5CCNCC5)c(F)c4)nc32)c1 [drawing 463]
4. CC(C)(C)S(=O)(=O)Nc1cccc(-n2ccc3cnc(Nc4ccc(C(=O)N5CCNCC5)c(F)c4)nc32)c1 [drawing 462]
5. Cc1cnc(Nc2ccc(N3CCN(C)CC3)cc2)nc1Nc1cccc(NS(=O)(=O)C(C)(C)C)c1 [drawing 245]
6. CN1CCN(c2ccc(Nc3ncc4ccn(-c5cccc(NS(=O)(=O)C6CC6)c5)c4n3)cc2)CC1 [drawing 297]
7. COc1cc(Nc2ncc3ccn(-c4cccc(NS(=O)(=O)C(C)(C)C)c4)c3n2)ccc1N1CCNCC1

Response given:
1000
131
194
268
230
2630
320

Provide each entry's IC50 from the list below.
1. Cc1ccc(Nc2nc(Nc3ccc(N4CCN(C)CC4)cc3)nc3ccccc23)cc1NS(=O)(=O)C(C)(C)C
2. CN(C)C1CCN(c2ccc(Nc3ncc4scc(-c5ccc(F)c(NS(=O)(=O)C(C)(C)C)c5)c4n3)cc2F)CC1

Response given:
1800
177

Challenge: Which IC50 is reported for this molecule? CN1CCN(c2ccc(Nc3ncc4ccn(-c5cccc(NS(=O)(=O)C(C)(C)C)c5)c4n3)cc2)CC1 [drawing 260]
Response given: 696

----------
target system: BRD4-BD1 (Homo sapiens (Human), UniProt O60885)
assay explanation: AlphaLisa bromodomain binding assay, BRD4-BD1
condition summary: Table 6; read-out: BRD4(1) IC50
property measured: IC50
Show the value, then the unit it is measured in.

# annotated cases, reported IC50 shown
1. CN1CCN(c2ccc(Nc3ncc4ccn(-c5cccc(NS(=O)(=O)C6CC6)c5)c4n3)cc2)CC1 [drawing 297] : 1460 nM
2. CN1CCC(Nc2nc(Nc3ccc4c(c3)N(S(=O)(=O)C(C)(C)C)CC4)c3ccsc3n2)CC1 [drawing 185] : 220 nM
3. CC(C)(C)S(=O)(=O)Nc1cccc(-n2ccc3cnc(Nc4ccc(N5CCNCC5)c(F)c4)nc32)c1 [drawing 431] : 248 nM

// next item, IC50 requested
Challenge: Reported IC50 for CNC1CCN(c2ccc(Nc3ncc4ccn(-c5ccc(F)c(NS(=O)(=O)C(C)(C)C)c5)c4n3)cc2F)CC1 [drawing 457] : what is it?
Response given: 150 nM
